Test system: L1210 leukemia ip in BDF1 mice, survival T/C
Assay: NCI In Vivo Anticancer Drug Screen. Data for tumor model L1210 Leukemia (intraperitoneal) in B6D2F1 (BDF1) mice
Conditions: endpoint: mean survival time; dose: 50.0 mg/kg/injection; schedule: Q01DX001 (ip); vehicle: carboxymethylcellulose (CMC); higher = longer survival
Toxic doses and inconclusive results are not listed.
The reader will find reported T/C values listed item by item below.

                                   compound             value
0               O=[N+]([O-])c1ccccc1C1OCCO1   95 % of control
1  O=C1C(Cl)=C(Nc2ccccc2Cl)C(=O)C(Cl)=C1Nc1ccccc1Cl  101 % of control

Summary for this compound, CCCCCCCCCCCC(=O)Nc1ccc(SSc2ccc(NC(=O)CCCCCCCCCCC)cc2)cc1 : T/C is 97 % of control

Per the record, CCOP(=O)(NCCc1ccccc1)OCC has T/C of 109 % of control

---

System: L1210 leukemia ip in BDF1 mice, survival T/C
Assay: NCI In Vivo Anticancer Drug Screen. Data for tumor model L1210 Leukemia (intraperitoneal) in B6D2F1 (BDF1) mice
Conditions: endpoint: mean survival time; dose: 100.0 mg/kg/injection; schedule: Q04DX003 (ip); vehicle: Klucel (hydroxypropylcellulose) (HPC); higher = longer survival
Inconclusive results and toxic doses are left out.
measurement name: T/C

                                   compound             value
0                Cc1cc2nc(C)c(=O)[nH]c2cc1C   96 % of control
1       Cc1ccc(C)c(NC(=O)Oc2ccc(Cl)cc2Cl)c1   90 % of control
2       CC(=O)NC1=C(c2ccccc2)C(=O)c2ccccc21  107 % of control
3  OC1CCCC/C1=C/c1ccccc1 (configuration not stated)  103 % of control
4       CC(=O)CC(=O)Nc1cccc([N+](=O)[O-])c1   97 % of control

// below: T/C requested for another compound
GET /value?item= CC(=O)c1ccccc1Cc1cccc2c(Cl)cccc12 &field=T/C returns 95 % of control

---

Test system: L1210 leukemia ip in BDF1 mice, survival T/C
Experiment: NCI In Vivo Anticancer Drug Screen. Data for tumor model L1210 Leukemia (intraperitoneal) in B6D2F1 (BDF1) mice
Conditions: endpoint: mean survival time; dose: 50.0 mg/kg/injection; schedule: Q01DX001 (ip); vehicle: saline; higher = longer survival
Toxic doses and inconclusive results are not listed.
Catalogue of molecules with associated T/C

Guide cases for T/C, answers given:
                                   molecule                           target_of_assay  measurement_name             value
0     CCCCN(CCCC)CCCNc1c2c(nc3ccccc13)CCCC2  L1210 leukemia ip in BDF1 mice, survival T/C               T/C   91 % of control
1                      Sc1cccc2cccnc12.[Ni]  L1210 leukemia ip in BDF1 mice, survival T/C               T/C  111 % of control
2  C[N+](C)(C)CCC[N+](C)(C)CCN1C(=O)c2cccc3cccc(c23)C1=O  L1210 leukemia ip in BDF1 mice, survival T/C               T/C  101 % of control
3                                 O=C(O)CCS  L1210 leukemia ip in BDF1 mice, survival T/C               T/C   98 % of control
4   CC(=O)Nc1ccc(OCc2ccccc2)cc1[N+](=O)[O-]  L1210 leukemia ip in BDF1 mice, survival T/C               T/C   95 % of control
5  CCOC(=O)C(C#N)c1ccccc1 (stereo not given)  L1210 leukemia ip in BDF1 mice, survival T/C               T/C   96 % of control

# molecule C=C(C)C(=O)O[C@@H]1C[C@@]2(C)O[C@@H]2C[C@H](O)/C(C)=C/[C@H]2OC(=O)C(=C)[C@@H]21 ; its T/C = 96 % of control

Value of measured T/C for the entry NC(=O)C(c1ccccc1)C1(O)CCCCC1 (stereo not given) : 102 % of control

Form: molecule = CN(C)CCC(=O)c1ccc(Cl)cc1 ; T/C = 101 % of control

Measured T/C, Cc1cnc2cccc(C)c2c1Cl : 101 % of control

Sample COC1(c2ccccc2)Oc2ccccc2C(=O)C1(O)C[N+](=O)[O-] (stereo not given) ; T/C observed: 95 % of control

Query CC1=NN(C)C(=O)C1 yields T/C of 103 % of control
